System: α‐glucosidase
Test: α-Glucosidase inhibitory assay (p-nitrophenyl-α-D-glucopyranoside, microplate reader)
Assay type: biochemical
Settings: 200 μM; mean ± SEM, three independent experiments in triplicate
Method: After incubation (15 min, 37°C), the reaction was initiated by adding 20 μL of 2.5‐mM p‐nitrophenyl‐α‐D‐glucopyranoside. After an additional 15 min at 37°C, the reaction was stopped with 80 μL of 0.2‐M Na2CO3. The released p‐nitrophenol was quantified spectrophotometrically at λ 405 nm using a microplate reader. […] The inhibition of the enzyme (%) was calculated according to the formula: [1 − (Abssample − Abscontrol) /Absblank] × 100. […]
Give % of inhibition (200 μM) for every item shown.
Give bare numbers, in %.

Fill in: % of inhibition (200 μM) of C[C@@H]1[C@H](O)C[C@]2(C(=O)O)CC[C@]3(C)C(=CCC4[C@@]5(C)CC[C@H](O)C(C)(C)C5CC[C@]43C)C2[C@H]1C (stereo partly drawn) [Compound 6, 21α‐hydroxyursolic acid] is ___
26.8

Further, for CC1(C)CC[C@]2(C(=O)O)CC[C@]3(C)C(=CC(=O)C4[C@@]5(C)CC[C@H](O)C(C)(C)C5CC[C@]43C)C2C1 (stereo partly shown) [Compound 8, 11‐oxooleanolic acid] ?
49.9

Further, for C[C@@H]1CC[C@]2(C(=O)O)CC[C@]3(C)C(=CC[C@@H]4[C@@]5(C)CC[C@H](O)C(C)(C)[C@@H]5CC[C@]43C)[C@@H]2[C@]1(C)O [Compound 5, pomolic acid] ?
41.9

Further, for CC1=C2C=C3CCC4C(C)(C)CCC[C@@]4(C)C3CC2OC1=O (stereo partly shown) [Compound 2, jolkinolide E] ?
25.0

Further, for C=C(C)[C@@H]1CC[C@]2(C(=O)O)CC[C@]3(C)[C@H](CC[C@@H]4[C@@]5(C)CC[C@H](O)C(C)(C)[C@@H]5CC[C@]43C)[C@@H]12 [Compound 11, betulinic acid] ?
64.4

For each listed entry, give its % of inhibition (200 μM).
1. C[C@H]1[C@H](C)CC[C@]2(C(=O)O)CC[C@]3(C)C(=CC[C@@H]4[C@@]5(C)CC[C@H](O)C(C)(C)[C@@H]5CC[C@]43C)[C@H]12 [Compound 9, ursolic acid]
2. C=C(CO)[C@@H]1CC[C@]2(C(=O)O)CC[C@]3(C)C(CCC4[C@@]5(C)CC[C@H](O)C(C)(C)C5CC[C@]43C)C12 (stereo partly shown) [Compound 4, 30‐hydroxybetulinic acid]

65.7
34.0
